assayed_system: T1, TIGIT fusion protein with Fc or mFc tag (human, UniProt Q495A1 22-141)
T1 construct: extracellular domain; also called TIGIT-Fc; TIGIT-mFc
T1 sequence (looked up): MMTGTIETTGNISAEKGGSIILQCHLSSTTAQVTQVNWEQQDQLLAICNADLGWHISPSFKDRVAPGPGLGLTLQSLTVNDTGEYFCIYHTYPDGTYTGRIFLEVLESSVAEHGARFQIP
assay_comment: FACS blocking assay: TIGIT-mFc pre-incubated with the antibody, added to CHO cells overexpressing CD112 (blocked ligand), PE anti-mouse IgG, MFI

>  <binder>
h1708-04 (antibody, human IgG4 S228P, kappa, V domains shown, also called humanized TIGIT antibody h1708-04) VH: EVQLVQSGAEVKKPGASVKVSCKASGYTFTNYWMHWVRQAPGQGLEWMGRIDPDSTGSKYNEKFKTRVTMTRDTSTSTVYMELSSLRSEDTAVYYCAREGAYGYYFDYWGQGTLVTVSS VL: DIQMTQSPSSLSASVGDRVTITCRASENIYSYLAWYQQKPGKSPKLLIYNARTLAEGVPSRFSGSGSGTDFTLTISSLQPEDFATYYCQYHSGSPLPFGGGTKVEIKR

>  <IC50 (read off the curve)>
~5 nM

$$$$
>  <binder>
22G2-H3Q (antibody, human IgG4 S228P, kappa, V domains shown) VH: QVQLQESGPGLVKPSETLSLTCTVSGGSVSSGIYYWSWIRQPPGKGLEWIGYIYYSGSTNYNPSLKSRVTISVDTSKNQFSLKLSSVTAADTAVYYCARDYYVSGNYYNVDYYFFGVDVWGQGTTVTVSS VL: EIVLTQSPATLSLSPGERATLSCRASQSVSSYLAWYQQKPGQAPRLLIYDASNRATGIPARFSGSGSGTDFTLTISSLEPEDFAVYYCQQRSNWPPLFTFGPGTKVDIKR

>  <IC50 (read off the curve)>
~5 nM

$$$$
>  <binder>
h1707-02 (antibody, human IgG4 S228P, kappa, V domains shown, also called humanized TIGIT antibody h1707-02) VH: EVQLVESGGGLVQPGGSLRLSCAASGFTFSDYHMYWVRQAPGKGLEWVAYISKGGISTYYPDTVKGRFTISRDNAKNSLYLQMSRLRAEDTAVYYCARQSSYDFAMDYWGRGTLVTVSS VL: DIQMTQSPSFLSASVGDRVTITCKASQDVGTSVAWYQQKPGKAPKLLIYWASARHTGVPSRFSGSGSGTDFTLTISSLQPEDFATYYCQQYSSYPLTFGQGTKLEIKR

>  <IC50 (read off the curve)>
~5 nM

$$$$
>  <binder>
h1709-10 (antibody, human IgG4 S228P, kappa, V domains shown, also called humanized TIGIT antibody h1709-10) VH: EVQLVQSGAEVKKPGASVKVSCKASGYTFTDYYMHWVRQAPGQGLEWMGLVYPYNDNTGYNRKFKGRVTMTVDTSTSTVYMELNSLRSEDTAVYYCARGGPSNWNYFDYWGQGTLVTVSS VL: DIQMTQSPSSLSASVGDRVTITCKASQNVVTAVAWYQQKPGKSPKLLIYSASNRYTGVPDRFSGSGSGTDFTLTISSLQPEDFATYFCQQYTLYPLTFGGGTKVEIKR

>  <IC50 (read off the curve)>
~5 nM

$$$$

The measured values listed here are drawn from patent US20200255516A1.
